Biological target: Muscarinic acetylcholine receptor M5 (Homo sapiens, UniProt P08912)
Sequence (P08912 whole entry): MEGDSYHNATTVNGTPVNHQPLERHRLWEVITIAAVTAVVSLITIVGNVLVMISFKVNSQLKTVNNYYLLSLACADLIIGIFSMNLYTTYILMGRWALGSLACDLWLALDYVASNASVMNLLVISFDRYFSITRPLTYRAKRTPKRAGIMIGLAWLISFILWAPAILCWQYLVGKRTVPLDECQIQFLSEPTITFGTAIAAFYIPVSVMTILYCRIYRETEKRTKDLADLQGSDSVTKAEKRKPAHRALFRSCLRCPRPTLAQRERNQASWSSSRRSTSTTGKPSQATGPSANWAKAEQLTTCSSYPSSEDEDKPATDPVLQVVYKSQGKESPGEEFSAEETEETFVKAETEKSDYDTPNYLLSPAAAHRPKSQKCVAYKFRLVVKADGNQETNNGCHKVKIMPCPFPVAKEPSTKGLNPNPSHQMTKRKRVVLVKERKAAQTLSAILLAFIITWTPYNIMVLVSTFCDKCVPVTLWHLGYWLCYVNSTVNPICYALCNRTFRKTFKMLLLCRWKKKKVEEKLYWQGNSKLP
pKi: −log10 of the molar value.
REPORTED METRIC: pKi

Examples from the recorded data:
# MOLECULE, READING
rows = [
    ("CN(C)CCNC(=O)C1=C(Cc2ccccn2)c2ccccc2C1", 4.34),
    ("CCN(CC)CCC1=C(C(C)c2ccccn2)c2ccccc2C1 (stereo unspecified)", 5.68),
    ("CSc1ccc2c(c1)C(C(C)c1ccccn1)=C(CCN(C)C)C2 (stereo unspecified)", 5.49),
    ("CC(C1=C(CCN2CCCC2)Cc2ccccc21)c1ccccn1 (stereo unspecified)", 5.70),
]

P. C[C@H](C1=C(CCN(C)C)Cc2ccccc21)c1ccccn1 [(S)-(+)-DIMETHINDENE]
Q. CN(C)CCC1=C(C(c2ccccc2)c2ccccn2)c2ccccc2C1 (stereo unspecified)
// select label with min value of measured pKi from [ P , Q ] In your reply, give the label of the chosen option.
P

* * *

Target: Muscarinic acetylcholine receptor M2 (Homo sapiens)
Sequence (P08172 whole entry): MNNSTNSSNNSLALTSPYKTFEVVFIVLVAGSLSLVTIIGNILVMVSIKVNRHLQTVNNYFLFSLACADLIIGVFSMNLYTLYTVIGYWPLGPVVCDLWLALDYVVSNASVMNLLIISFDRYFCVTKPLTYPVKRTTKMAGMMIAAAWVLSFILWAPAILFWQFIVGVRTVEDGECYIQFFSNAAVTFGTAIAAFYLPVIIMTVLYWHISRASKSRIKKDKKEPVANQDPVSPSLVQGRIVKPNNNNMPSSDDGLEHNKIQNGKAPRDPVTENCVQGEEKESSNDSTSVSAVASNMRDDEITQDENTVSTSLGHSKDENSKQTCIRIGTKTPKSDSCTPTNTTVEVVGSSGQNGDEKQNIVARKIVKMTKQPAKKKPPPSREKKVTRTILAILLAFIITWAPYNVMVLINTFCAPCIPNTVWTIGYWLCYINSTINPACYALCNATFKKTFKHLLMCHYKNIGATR
REPORTED METRIC: Ki (µM)

# MOLECULE, ASSAYED TARGET, MEASUREMENT UNIT, Ki
rows = [
    ("Cc1ccc2c(c1)CC(CCN(C)C)=C2C(C)c1ccccn1 (stereo unspecified)", "Muscarinic acetylcholine receptor M2 (Homo sapiens)", "µM", 0.589),
    ("COc1ccc2c(c1)CC(CCN(C)C)=C2C(C)c1ccccn1 (stereo unspecified)", "Muscarinic acetylcholine receptor M2 (Homo sapiens)", "µM", 1.07),
]

1. CC(C1=C(CCN(C)C)Cc2cc(Cl)ccc21)c1ccccn1 (stereo unspecified)
2. CC(C1=C(CCN(C(C)C)C(C)C)Cc2ccccc21)c1ccccn1 (stereo in doubt; (+)-19)
3. CC(C1=C(CCN2CCCCC2)Cc2ccccc21)c1ccccn1 (stereo unspecified)
4. CN(C)CCNC(=O)C1=C(Cc2ccccn2)c2ccccc2C1
Rank entries according to their Ki, from the largest number down. Please list each label once, in the requested order.
4, 3, 2, 1
(4: 14.8 µM, 3: 0.851 µM, 2: 0.575 µM, 1: 0.0331 µM)

* * *

Target: Muscarinic acetylcholine receptor M1 (Homo sapiens)
pKi: −log10 of the molar value.
REPORTED METRIC: pKi

Examples from the recorded data:
# COMPOUND, ASSAYED TARGET, REPORTED METRIC, READING
records = [
    ("CC(C1=C(CCN(C(C)C)C(C)C)Cc2ccccc21)c1ccccn1 (stereo in doubt; 19)", "Muscarinic acetylcholine receptor M1 (Homo sapiens)", "pKi", 6.13),
    ("CCCC(C1=C(CCN(C)C)Cc2ccccc21)c1ccccn1 (stereo unspecified)", "Muscarinic acetylcholine receptor M1 (Homo sapiens)", "pKi", 6.61),
    ("C[C@H](C1=C(CCN(C)C)Cc2ccccc21)c1ccccn1 [(S)-(+)-DIMETHINDENE]", "Muscarinic acetylcholine receptor M1 (Homo sapiens)", "pKi", 5.73),
    ("CC(C1=C(CCN(C)C)Cc2cc(Cl)ccc21)c1ccccn1 (stereo unspecified)", "Muscarinic acetylcholine receptor M1 (Homo sapiens)", "pKi", 6.82),
    ("CCC(C1=C(CCN(C)C)Cc2cc(Cl)ccc21)c1ccccn1 (stereo unspecified)", "Muscarinic acetylcholine receptor M1 (Homo sapiens)", "pKi", 6.65),
    ("CC(C1=C(CCN(C(C)C)C(C)C)Cc2ccccc21)c1ccccn1 (stereo in doubt; (-)-19)", "Muscarinic acetylcholine receptor M1 (Homo sapiens)", "pKi", 5.81),
    ("CSc1ccc2c(c1)C(C(C)c1ccccn1)=C(CCN(C)C)C2 (stereo unspecified)", "Muscarinic acetylcholine receptor M1 (Homo sapiens)", "pKi", 6.06),
    ("CC(C1=C(CCCN(C)C)Cc2ccccc21)c1ccccn1 (stereo unspecified)", "Muscarinic acetylcholine receptor M1 (Homo sapiens)", "pKi", 6.05),
]

a. CCC(C1=C(CCN(C)C)Cc2ccccc21)c1ccccn1 (stereo unspecified)
b. CN(C)CCC1=C(C(c2ccccc2)c2ccccn2)c2ccccc2C1 (stereo unspecified)
API: POST /compare with a and b ; response names the item with higher pKi. In your reply, give the label of the chosen option.
b
(b: 7.36, a: 6.62)

* * *

Target sequence: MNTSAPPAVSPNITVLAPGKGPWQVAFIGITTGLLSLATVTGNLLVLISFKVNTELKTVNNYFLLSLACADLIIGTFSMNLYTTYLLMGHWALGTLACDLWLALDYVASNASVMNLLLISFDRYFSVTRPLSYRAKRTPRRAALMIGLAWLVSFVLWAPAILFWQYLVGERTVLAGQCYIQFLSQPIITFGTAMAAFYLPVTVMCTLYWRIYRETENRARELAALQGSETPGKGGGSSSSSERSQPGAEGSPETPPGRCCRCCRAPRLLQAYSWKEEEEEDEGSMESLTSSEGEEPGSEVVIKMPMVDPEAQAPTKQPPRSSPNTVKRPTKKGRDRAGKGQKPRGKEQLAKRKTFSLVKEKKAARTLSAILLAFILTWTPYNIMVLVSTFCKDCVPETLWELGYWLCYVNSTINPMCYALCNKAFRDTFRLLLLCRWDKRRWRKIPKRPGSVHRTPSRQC
pKi: −log10 of the molar value.
REPORTED METRIC: pKi

Examples from the recorded data:
# COMPOUND, pKi
measured = [
    ("CN(C)CCNC(=O)C1=C(Cc2ccncc2)c2ccccc2C1", 4.27),
    ("CC(C1=C(CCN(C)C)Cc2ccc(F)cc21)c1ccccn1 (stereo unspecified)", 6.48),
    ("CN(C)CCC1=C(Cc2ccncc2)c2ccccc2C1", 5.37),
    ("C[C@@H](C1=C(CCN(C)C)Cc2ccccc21)c1ccccn1", 6.72),
    ("CN(C)CCC1=C(Cc2cccnc2)c2ccccc2C1", 5.43),
    ("CC(C1=C(CCN(C)C)Cc2ccc(Cl)cc21)c1ccccn1 (stereo unspecified)", 6.46),
]

P. CCN(CC)CCC1=C(C(C)c2ccccn2)c2ccccc2C1 (stereo unspecified)
Q. CN(C)CCOC(=O)C1=C(Cc2ccccn2)c2ccccc2C1
API: POST /compare with P and Q ; response names the item with higher pKi. In your reply, give the label of the chosen option.
P
(P: 6.35, Q: 5.27)

* * *

Sequence of the target: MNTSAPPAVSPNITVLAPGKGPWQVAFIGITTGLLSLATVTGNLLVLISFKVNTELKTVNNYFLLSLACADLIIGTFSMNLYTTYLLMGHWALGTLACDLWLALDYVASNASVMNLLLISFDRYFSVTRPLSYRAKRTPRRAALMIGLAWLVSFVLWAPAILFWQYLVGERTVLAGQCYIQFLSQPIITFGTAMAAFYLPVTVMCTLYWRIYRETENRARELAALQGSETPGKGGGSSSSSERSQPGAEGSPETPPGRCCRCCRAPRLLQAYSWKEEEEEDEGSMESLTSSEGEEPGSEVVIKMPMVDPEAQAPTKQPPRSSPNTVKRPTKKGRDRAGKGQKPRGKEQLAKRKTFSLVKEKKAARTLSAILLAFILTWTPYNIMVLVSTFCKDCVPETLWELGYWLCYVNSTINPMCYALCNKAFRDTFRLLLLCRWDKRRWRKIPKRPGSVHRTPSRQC
REPORTED METRIC: Ki (nM)

I. CC(C1=C(CN(C)C)Cc2ccccc21)c1ccccn1 (stereo not drawn)
II. CC(C1=C(CCN2CCCC2)Cc2ccccc21)c1ccccn1 (stereo not drawn)
III. CN(C)CCOC(=O)C1=C(Cc2cccnc2)c2ccccc2C1
Please list these compounds in decreasing order of Ki. Please list each label once, in the requested order.
III, II, I
(III: 3550 nM, II: 1050 nM, I: 34.7 nM)

Cited source for all entries: ChEMBL document CHEMBL1136812
